Target: HIV protease (Human immunodeficiency virus type 1 group M subtype B)
Construct: and purified protease
Assay: HIV Protease Assay
Format: biochemical
Settings: pH 5.5, read-out: HIV Protease % Inhibition at 10 μM
What inhibition at 10 µM was measured for each of the following?
State the value with its unit after it.

What does the data say about its inhibition at 10 µM? Entry: CC(C)(C)OC(=O)N[C@@H](Cc1ccccc1)[C@H](O)CNC[C@@H](O)[C@H](Cc1ccc(OCC(=O)N2CCCCC2)cc1)NC(=O)OC(C)(C)C
100%

Please give the result for CN(C)C(=O)OCCOc1ccc(C[C@H](NC(=O)OC(C)(C)C)[C@H](O)CNC[C@@H](O)[C@H](Cc2ccccc2)NC(=O)OC(C)(C)C)cc1 too.
98%

Please give the result for CC(C)(C)OC(=O)N[C@@H](Cc1ccccc1)[C@H](O)CNC[C@@H](O)[C@H](Cc1ccc(OCC(O)c2cccnc2)cc1)NC(=O)OC(C)(C)C (single isomer, unassigned; isomer a) too.
99%

Please give the result for CC(C)(C)OC(=O)N[C@@H](Cc1ccccc1)[C@H](O)CNC[C@@H](O)[C@H](Cc1ccccc1)NC(=O)[C@@](C)(O)C(C)(C)C too.
94%

Please give the result for CC(C)(C)OC(=O)N[C@@H](Cc1ccccc1)[C@H](O)CNC[C@@H](O)[C@H](Cc1ccccc1)NC(=O)C(C)(C)O too.
94%

Please give the result for CC(C)(C)OC(=O)N[C@@H](Cc1ccccc1)[C@H](O)CNC[C@@H](O)[C@H](Cc1ccc(OCCn2ccnc2)cc1)NC(=O)OC(C)(C)C too.
99%

Please give the result for CC(C)(C)OC(=O)N[C@@H](CC1CCCCC1)[C@H](O)CNC[C@@H](O)[C@H](CC1CCCCC1)NC(=O)OC(C)(C)C too.
100%

Please give the result for CC(C)(C)COC(=O)N[C@@H](Cc1ccccc1)[C@H](O)CNC[C@@H](O)[C@H](Cc1ccccc1)NC(=O)OCC(C)(C)C too.
73%

Please give the result for CC(C)(C)OC(=O)N[C@@H](Cc1ccccc1)[C@H](O)CNC[C@@H](O)[C@H](Cc1ccccc1)NC(=O)OC(C)(C)CN too.
49%

Please give the result for CC(C)(C)CC(=O)N[C@@H](Cc1ccccc1)[C@H](O)CNC[C@@H](O)[C@H](Cc1ccccc1)NC(=O)OC(C)(C)C too.
78%

Please give the result for CC(C)(C)OC(=O)N[C@@H](Cc1ccccc1)[C@H](O)CNC[C@@H](O)[C@H](Cc1cccc(O)c1)NC(=O)OC(C)(C)C too.
100%

Please give the result for CC(C)(O)COc1ccc(C[C@H](NC(=O)OC(C)(C)C)[C@H](O)CNC[C@@H](O)[C@H](Cc2ccccc2)NC(=O)OC(C)(C)C)cc1 too.
99%
